Molecular target: SIRT1 (Homo sapiens, UniProt Q96EB6)
Sequence (Q96EB6 1-747): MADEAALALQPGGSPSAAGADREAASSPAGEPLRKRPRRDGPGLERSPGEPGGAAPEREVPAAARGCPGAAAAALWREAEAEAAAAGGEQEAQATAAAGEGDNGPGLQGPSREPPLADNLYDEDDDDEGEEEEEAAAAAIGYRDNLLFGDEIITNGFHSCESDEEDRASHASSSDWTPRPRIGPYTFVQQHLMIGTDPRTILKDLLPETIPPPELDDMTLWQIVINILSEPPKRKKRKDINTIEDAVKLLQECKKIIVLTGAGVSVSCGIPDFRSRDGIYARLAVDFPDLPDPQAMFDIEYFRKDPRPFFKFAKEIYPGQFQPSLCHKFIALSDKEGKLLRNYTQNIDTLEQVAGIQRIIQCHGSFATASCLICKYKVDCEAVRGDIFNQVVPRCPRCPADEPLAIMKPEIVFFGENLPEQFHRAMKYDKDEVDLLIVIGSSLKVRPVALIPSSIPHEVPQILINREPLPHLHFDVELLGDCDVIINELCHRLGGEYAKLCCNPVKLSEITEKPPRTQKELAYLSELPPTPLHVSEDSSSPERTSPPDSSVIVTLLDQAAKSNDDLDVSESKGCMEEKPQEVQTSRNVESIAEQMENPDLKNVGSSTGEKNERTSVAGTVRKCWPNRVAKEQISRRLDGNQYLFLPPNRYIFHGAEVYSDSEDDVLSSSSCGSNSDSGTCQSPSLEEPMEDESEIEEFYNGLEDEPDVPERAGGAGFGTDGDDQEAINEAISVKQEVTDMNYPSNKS
Assay: Mass spectrometry based assay to identify modulators of SIRT1 activity (deacetylation of p53-based acetylated peptide substrate)
Type: biochemical
From the text: A mass spectrometry based assay was used to identify modulators of SIRT1 activity. The mass spectrometry based assay utilizes a peptide having 20 amino acid residues as follows: Ac-EE-K(biotin)-GQSTSSHSK(Ac)NleSTEG-K(5TMR)-EE-NH2 (SEQ ID NO: 1) wherein K(Ac) is an acetylated lysine residue and Nle is a norleucine. The peptide is labeled with the fluorophore 5TMR (excitation 540 nm/emission 580 nm) at the C-terminus. The sequence of the peptide substrate is based on p53 with several modifications. […]
reported metric: EC1.5 (concentration giving 1.5-fold activation)

Some entries whose results are on file:
Quick one: EC1.5 (concentration giving 1.5-fold activation) of O=C(Nc1ccncc1F)N1CCCCc2ccc(-c3cccc(C(F)(F)F)c3)nc21 ?
1000 to 25000 nM

I would be grateful if you could share the reported EC1.5 (concentration giving 1.5-fold activation) for CCN1CCCN(C(=O)Nc2cc(C)nc(C)c2)c2nc(-c3cccc(Cl)c3)ccc21 .
< 1000 nM

What does the data say about its EC1.5 (concentration giving 1.5-fold activation)? Entry: O=C(Nc1ccncc1)N1CCc2ccc(-c3cccc(C(F)(F)F)c3)nc21
< 1000 nM

New cases:
Look up EC1.5 (concentration giving 1.5-fold activation): O=C(Nc1ncccc1F)N1CCC(F)(F)c2ccc(-c3cccc(C(F)(F)F)c3)nc21
1000 to 25000 nM

Can you share its EC1.5 (concentration giving 1.5-fold activation)? I mean this compound: O=C(Nc1cncnc1)N1CCC(F)(F)c2ccc(-c3cccc(C(F)(F)F)c3)nc21
1000 to 25000 nM
